- PROTOCOL_NOTES: yeast display, Sf9 membrane polyspecificity reagent, FACS + sequencing; frameworks hold sequencing errors

>  <MONOMER_SEQUENCE>
QVQLVESGGGLVQAGGSLRLSCAASGSIFYHYAMGWYRQAPGKERELVAAISWRGASTYYADSVKGRFTISRDNAKNTVYLQMNSLKPEDTAVYYCARLSSSHPLYRDEYWGQGTQVTVSS

>  <polyreactivity (PSR sort gate)>
high polyreactivity

$$$$
>  <MONOMER_SEQUENCE>
QVQLVESGGGLVQAGGSLRLSCAASGFTLYYYAMGWYRQAPGKERELVAAISYSGGTTYYADSVKGRFTISRDNAKYTVSLQMNSLKPEDTAVYYCAAEVGGYWADEYLGYDYWGQGTQVTVSS

>  <polyreactivity (PSR sort gate)>
low polyreactivity

$$$$
>  <MONOMER_SEQUENCE>
QVQLVESGGGLVQAGGSLRLSCAASGRSFGVYAMGWYRQAPGKERELVAVISSGGSTTYADSVKGRFTISRDNAKNTVYLQMNSLKPEDTAVYYCAAVSYRRHFGPYNYWGQGTQVTVSS

>  <polyreactivity (PSR sort gate)>
low polyreactivity

$$$$
>  <MONOMER_SEQUENCE>
QGQLEESGGGLVQAGGSLRLSCAASGRTFGPYAMGRYRQAPGKERELVAAIRSAGSTYYADSVKGRFTISRDNAKNTVYLQMISLKPEDTAVYYCADDIARHLTGFAYYRLDYWGQGTQVTVSS

>  <polyreactivity (PSR sort gate)>
low polyreactivity

$$$$
>  <MONOMER_SEQUENCE>
QVQLEDSGGGLVQAGGSLRLSCAASGGTFRYNSMGWYRPAPGKERELVAGITWGGGSTYYADSVKGRFTISRDYAKNSVYLQMNSLKPEDTAVYYCNAVRPRQWWTHYGYWGQGTQVTVSS

>  <polyreactivity (PSR sort gate)>
high polyreactivity

$$$$

----------
- PROTOCOL_NOTES: yeast display, Sf9 membrane polyspecificity reagent, FACS + sequencing; frameworks hold sequencing errors

>  <MONOMER_SEQUENCE>
QVQLVESGGGLVQAGGSLRLSCAASGLIFQVYDMGWYRQAPGKERELDAAISSGSNTNYADSVKGRFTISRDNAKNTVYLQMNSLIPEDTAVYYCAASWGYGGLTPDMGYWGQGTHVTVSS

>  <polyreactivity (PSR sort gate)>
low polyreactivity

$$$$
>  <MONOMER_SEQUENCE>
QVQLVESGGGLVQAGGSLRLRCAASGNTFFGYDMGWYRQAPGKERELVAAISGSGGGTYYADSVKGRFTISRDNAMNTVYLQMNCLKPEDTAVYYCAADSPQTEGYWGEGTQVTVSS

>  <polyreactivity (PSR sort gate)>
low polyreactivity

$$$$

----------
- PROTOCOL_NOTES: yeast display, Sf9 membrane polyspecificity reagent, FACS + sequencing; frameworks hold sequencing errors

>  <MONOMER_SEQUENCE>
QVQLVESGGGLVQAGGSLRISCAASGFICPQNTMGWYRQAPGTERELVAAITSCGSTYYADSVKGRFTISRDNGKNTVYLQMNSLKPEDTAVYYCAARPYGNWTYGYWGQGTQVTVSS

>  <polyreactivity (PSR sort gate)>
low polyreactivity

$$$$
>  <MONOMER_SEQUENCE>
QVQRVESGGGLVQAGGSLRLSCAASGSIFPSNTMGWYRQAPGKERELVAAISGSGTRTYYADSVKGRFTISRDNAKNTVYLQMNSLKPEDTAVYYCAADVDYWGQGTQVTVSS

>  <polyreactivity (PSR sort gate)>
low polyreactivity

$$$$
>  <MONOMER_SEQUENCE>
QVQLVESGGGLVQAGGILRLICAAYGRILAYNSMGWYRQAPGKQRELVAGISWSGGSTYYADSVKGRFTISRDNAKNTVYLQMNSLKPEDTAVYYCAKTPYYRYAKQRYTSSHDYWGQGTQVTVSS

>  <polyreactivity (PSR sort gate)>
high polyreactivity

$$$$
>  <MONOMER_SEQUENCE>
QVQLVESGGGLVQAGGSLRLSCAASVFIFGYNAMGWYRQAPGKERELVAAISSSGGSTYYADSVKGRFTISRDNAKNTVYLQMNSLKPEDTAVYYCAARPVALRKYDYWGQGTQVTVSS

>  <polyreactivity (PSR sort gate)>
low polyreactivity

$$$$
>  <MONOMER_SEQUENCE>
QVQLVESGGGLVQAGGSLRLSCAASGRIFFRYDLGWYRQAPGKERELVAAISGGDRTSYADSVKGRFTISRDNAKITVYLQMNSLKPEDTAVYYCAGKRRSGEYYYWGQGTQVTVSS

>  <polyreactivity (PSR sort gate)>
low polyreactivity

$$$$
>  <MONOMER_SEQUENCE>
QVQLVESGGGLVQAGGSLRLSCAASGSIFYSNAMGWYRQAPGKERELVATIRSGGTTYYADSVKGRFTISRDNAKNTVYLQMNSLKPEDTAVYYCANRYGVKYWGQGTQVTVSS

>  <polyreactivity (PSR sort gate)>
high polyreactivity

$$$$
>  <MONOMER_SEQUENCE>
QVQLVESGGGLVQAGGSLRLSCAASGFTFNNYAMGWYRQAPGKERELVAAISSGAGTYYADSVKGRFTISRDNAKNTVYLQMNSLNPVDTSVDYCNASLKYQGRTRITYRDDYWGQGTQVTVSS

>  <polyreactivity (PSR sort gate)>
low polyreactivity

$$$$
>  <MONOMER_SEQUENCE>
QVQLVESGAGLVQAGGSLRLSCAPSGRIFYYAMGWYRQAPGKERELVAAISSGGSTNYADSVKGRFTISRDNSKNSVYLQMNSLKPEDTAVYYCAADRYWRWPRRDYWGQGTQVTVSS

>  <polyreactivity (PSR sort gate)>
low polyreactivity

$$$$
>  <MONOMER_SEQUENCE>
QVPLVESGGGLVQAGGSLRISCAASFRYNTMGWYRQAPGKERELVAAISGSGSRTYYADSVKGRFTISRDNAKITVYLQMNSLKPEDTAVFYCAALSYRNSEVGTSRGDYWGQGTQVTVSS

>  <polyreactivity (PSR sort gate)>
high polyreactivity

$$$$
>  <MONOMER_SEQUENCE>
QVQLVESGGGLVQAGGSLRLSCAASGFSFKYYAMGWYRQAPGKERELVATIRRGGSTYADSVKGRFTISRDNAKNSVYLQMNSLKPDDTAVYYCATRISSSTVPLYYFSGYNYWGQGTQVTVSS

>  <polyreactivity (PSR sort gate)>
high polyreactivity

$$$$
>  <MONOMER_SEQUENCE>
QVQLVESGGGLVQAGGSLRLSCAPSGRTLFHYAMGWYRQAPGKERELVAAISSGGRTNYADSVKGRFTISRDNAKNTVYLQMNSLKPEDTAVYYCAARRFYLQHGFEYWGQGTQVTVSS

>  <polyreactivity (PSR sort gate)>
high polyreactivity

$$$$

All figures here come from the nanobody polyreactivity screen of Harvey et al. (2022).
